tested on: Kleb. pneumo. SK 1200; assay: MIC in vitro (Table 1), Kleb. pneumo. SK 1200; format: cell-based

{"compound": "NC(=O)Cn1nnnc1SCC1=C(C(=O)O)N2C(=O)C(NC(=O)CSC(F)(F)F)[C@H]2SC1 (stereo partly shown)", "MIC (µg/mL)": 0.4}
{"compound": "O=C(O)Cn1nnnc1SCC1=C(C(=O)O)N2C(=O)C(NC(=O)[C@H](O)c3ccccc3)[C@H]2SC1 (stereo partly shown)", "MIC (µg/mL)": 1.6}
{"compound": "O=C(O)CCn1nnnc1SCC1=C(C(=O)O)N2C(=O)C(NC(=O)CSC(F)(F)F)[C@H]2SC1 (stereo partly shown)", "MIC (µg/mL)": 0.4}
{"compound": "N[C@@H](C(=O)NC1C(=O)N2C(C(=O)O)=C(CSc3nnnn3CC(=O)O)CS[C@H]12)c1ccc(O)cc1 (stereo partly shown)", "MIC (µg/mL)": 6.3}
